Reference source: paper PMC7035640

Tested on: murine macrophages (RAW 264.7)
assay name: Cytotoxicity assessment, Cell Counting Kit-8
Type: cell-based, mouse
conditions: RAW 264.7; time not given in the sentence; read-out: CC50
measurement label: CC50

Entry O.O.O.O.O.O.O.O.O.O=C([O-])[C@@H]1[O][Sb](=[O])([O][Sb]2(=[O])[O][C@H]([C@H](O)CO)[C@H](O)[C@H](C(=O)[O-])[O]2)[O][C@H]([C@H](O)CO)[C@@H]1O.[Na+].[Na+].[Na+] (stereo partly shown) [SSG, Sodium stibogluconate] — recorded CC50 = > 120 µM

* * *

Test system: murine macrophages (RAW 264.7)
assay name: Cytotoxicity assessment, Cell Counting Kit-8
Format: cell-based, mouse
conditions: 24 h; mean ± SD; read-out: Cytotoxicity (RAW 264.7) CC50
measurement label: CC50 (µM)
Numbers only; they are read as µM.

Entry CCCC[C@@H](C)[C@@H](O)[C@H]1C(=O)N[C@@H](CC)C(=O)N(C)CC(=O)N(C)[C@@H](CC(C)C)C(=O)N[C@@H](C(C)C)C(=O)N(C)[C@@H](CC(C)C)C(=O)N[C@@H](C)C(=O)N[C@H](C)C(=O)N(C)[C@@H](CC(C)C)C(=O)N(C)[C@@H](CC(C)C)C(=O)N(C)[C@@H](C(C)C)C(=O)N1C [DHCsA-d, dihydrocyclosporin A] — recorded CC50 = 7.98
